src = the supplement of paper PMC5908809

Field: percent inhibition of viability. Provide a value for each of the compounds that follow.
Tested on: normal NK cells expanded with K562-aAPC
testName: percent inhibition of viability; higher = more inhibition
testParameters: 72 h; IL-2 2.5 ng/mL; 1000 nM
Give the quantity in %, number only.

The compound CCc1cc(Nc2nccc(-c3c(-c4ccc(OC)c(C(=O)Nc5c(F)cccc5F)c4)nc4ccccn34)n2)c(OC)cc1N1CCC(N2CCN(S(C)(=O)=O)CC2)CC1 (max concentration tested 10000 nM) , tested on normal NK cells expanded with K562-aAPC, showed percent inhibition of viability of 1.87

The compound CNC(=O)c1ccc(C)c(-n2c(C)cc(OCc3ccc(F)cc3F)c(Br)c2=O)c1 (max concentration tested 1000 nM) , tested on normal NK cells expanded with K562-aAPC, showed percent inhibition of viability of 11.1

The compound O=C(NC1CCNCC1)c1n[nH]cc1NC(=O)c1c(Cl)cccc1Cl [AT7519] (max concentration tested 10000 nM) , tested on normal NK cells expanded with K562-aAPC, showed percent inhibition of viability of 99.1

The compound COc1cc(N2CCN(C)CC2)ccc1Nc1nccc(-c2cn(C)c3cnccc23)n1 [AZ191] (max concentration tested 10000 nM) , tested on normal NK cells expanded with K562-aAPC, showed percent inhibition of viability of 6.6

The compound O=C(NOCC1CC1)c1ccc(F)c(F)c1Nc1ccc(I)cc1Cl (max concentration tested 10000 nM) , tested on normal NK cells expanded with K562-aAPC, showed percent inhibition of viability of 3.29

The compound Cc1nc(C(=O)NCC(=O)O)c(O)c2ccc(Oc3ccccc3)cc12 [FG-4592] (max concentration tested 10000 nM) , tested on normal NK cells expanded with K562-aAPC, showed percent inhibition of viability of 6.19

The compound O=C(CCBr)N1CCN(C(=O)CCBr)CC1 [Pipobroman] (max concentration tested 10000 nM) , tested on normal NK cells expanded with K562-aAPC, showed percent inhibition of viability of 7.79

The compound CC[C@H](CO)Nc1nc(NCc2ccccc2)c2ncn(C(C)C)c2n1 [Seliciclib] (max concentration tested 10000 nM) , tested on normal NK cells expanded with K562-aAPC, showed percent inhibition of viability of 3.89

The compound CNC(=O)c1nn(C)c2c1C(C)(C)Cc1cnc(Nc3ccc(N4CCN(C)CC4)cc3)nc1-2 [Milciclib] (max concentration tested 10000 nM) , tested on normal NK cells expanded with K562-aAPC, showed percent inhibition of viability of 58

The compound CN(C[C@@H]1COCCO1)S(=O)(=O)Nc1ccc2ccc3ncc(-c4cnn(C)c4)cc3c(=O)c2c1 [MK-2461] (max concentration tested 10000 nM) , tested on normal NK cells expanded with K562-aAPC, showed percent inhibition of viability of -1.83

The compound COc1ccccc1S(=O)(=O)Nc1ccc2c(c1)CN(C)C(=O)N2 [PFI-1] (max concentration tested 10000 nM) , tested on normal NK cells expanded with K562-aAPC, showed percent inhibition of viability of 10.4

The compound COc1cc2c(N3CCN(C(=O)Nc4ccc(OC(C)C)cc4)CC3)ncnc2cc1OCCCN1CCCCC1 [Tandutinib] (max concentration tested 1000 nM) , tested on normal NK cells expanded with K562-aAPC, showed percent inhibition of viability of 8.72

The compound C[C@@H]1COC(Nc2ccc3ncnc(Nc4ccc(OCc5nccs5)c(Cl)c4)c3c2)=N1 [Varlitinib] (max concentration tested 10000 nM) , tested on normal NK cells expanded with K562-aAPC, showed percent inhibition of viability of 6.23
